target desc: T1, human CD300LB on primary human monocytes (human, UniProt A8K4G0 18-201)
T1 construct: Endogenous protein on primary cells; that the target is CD300LB is inferred from the antibodies being anti-CD300LB antibodies; also called Monocyte donor 1281; Monocyte donor 1282
T1 sequence: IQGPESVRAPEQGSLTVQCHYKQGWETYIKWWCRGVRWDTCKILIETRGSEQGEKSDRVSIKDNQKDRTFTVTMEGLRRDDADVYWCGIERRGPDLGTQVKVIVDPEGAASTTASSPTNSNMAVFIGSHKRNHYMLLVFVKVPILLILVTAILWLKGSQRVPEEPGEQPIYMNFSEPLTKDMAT
protocol notes: flow cytometry, primary human monocytes donor 1283, 10 ug/mL antibody, isotype control subtracted
endpoint: gMFI (gMFI)
Report the value in gMFI with no unit label.

INSERT INTO results (binder, result_value) VALUES
  ('anti-CD300LB antibody CD-08 (antibody, V domains shown) VH: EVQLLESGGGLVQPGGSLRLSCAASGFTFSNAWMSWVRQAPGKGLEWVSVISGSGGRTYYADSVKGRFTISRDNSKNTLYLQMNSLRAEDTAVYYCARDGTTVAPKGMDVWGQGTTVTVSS VL: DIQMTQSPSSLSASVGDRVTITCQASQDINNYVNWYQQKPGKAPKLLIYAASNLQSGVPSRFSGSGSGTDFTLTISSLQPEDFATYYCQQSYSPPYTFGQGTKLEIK', 1920);

Reported gMFI for anti-CD300LB antibody CD-05 (antibody, V domains shown) VH: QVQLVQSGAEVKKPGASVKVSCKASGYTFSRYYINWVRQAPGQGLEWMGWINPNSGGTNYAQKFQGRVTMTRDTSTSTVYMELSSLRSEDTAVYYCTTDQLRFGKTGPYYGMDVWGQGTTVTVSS VL: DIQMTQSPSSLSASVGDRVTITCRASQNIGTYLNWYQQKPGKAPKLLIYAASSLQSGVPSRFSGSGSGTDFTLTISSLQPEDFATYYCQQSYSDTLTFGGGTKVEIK was 935

The binder anti-CD300LB antibody CD-09 (antibody, V domains shown) VH: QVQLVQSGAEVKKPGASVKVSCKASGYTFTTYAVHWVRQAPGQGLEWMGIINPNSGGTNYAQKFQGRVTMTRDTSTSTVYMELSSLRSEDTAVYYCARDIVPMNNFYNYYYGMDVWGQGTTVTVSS VL: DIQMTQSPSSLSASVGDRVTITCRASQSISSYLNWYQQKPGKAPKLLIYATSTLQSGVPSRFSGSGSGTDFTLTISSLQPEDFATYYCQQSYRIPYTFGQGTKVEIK showed gMFI equal to 2580

Noted for anti-CD300LB antibody CD-07 (antibody, V domains shown) VH: QVQLVQSGAEVKKPGASVKVSCKASGYTFTNYRMHWVRQAPGQGLEWMGWINPNSGGTIYAQKFQGRVTMTRDTSTSTVYMELSSLRSEDTAVYYCARDLDYWGQGTLVTVSS VL: DIQMTQSPSSLSASVGDRVTITCQASQDISNYLNWYQQKPGKAPKLLIYGASSLQSGVPSRFSGSGSGTDFTLTISSLQPEDFATYYCQQSYSTPWTFGPGTKVEIK : its gMFI reads 47

Looking up anti-CD300LB antibody CD-06 (antibody, V domains shown) VH: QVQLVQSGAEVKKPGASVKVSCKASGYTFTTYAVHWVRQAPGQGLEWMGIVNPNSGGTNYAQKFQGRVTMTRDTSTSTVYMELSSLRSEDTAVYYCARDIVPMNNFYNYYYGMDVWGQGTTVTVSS VL: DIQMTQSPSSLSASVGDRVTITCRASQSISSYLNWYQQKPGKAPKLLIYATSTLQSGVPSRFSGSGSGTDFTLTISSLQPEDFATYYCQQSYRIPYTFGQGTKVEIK , I found its gMFI recorded as 2470

Each recorded value in this set is attributed to patent US20240254227A1.
